Below, each entry is listed alongside its reported Incidence: number of mice with pulmonary fibrosis/number of mice.
test system: ICR mice; experiment: Pulmonary toxicity (pulmonary fibrosis) in mice, intratracheal instillation; format: in vivo; conditions: 16 μg/50 μl/mouse intratracheally; sacrificed 4 weeks after instillation

Cc1c(N)nc(C(CC(N)=O)NCC(N)C(N)=O)nc1C(=O)NC(C(=O)NC(C)C(O)C(C)C(=O)NC(C(=O)NCCc1nc(-c2nc(C(=O)NCCC[N+](C)(CCCN(Cc3ccccc3)Cc3ccccc3)Cc3ccccc3)cs2)cs1)C(C)O)C(OC1OC(CO)C(O)C(O)C1OC1OC(CO)C(O)C(OC(N)=O)C1O)c1cnc[nH]1 (stereo not shown) [compound 39] | 2/9

We next turn to a different molecule, shown below.
The molecule listed as Cc1c(N)nc(C(CC(N)=O)NCC(N)C(N)=O)nc1C(=O)NC(C(=O)NC(C)C(O)C(C)C(=O)NC(C(=O)NCCc1nc(-c2nc(C(=O)NCCCN(C)CCCNCc3ccc(Cl)c(Cl)c3)cs2)cs1)C(C)O)C(OC1OC(CO)C(O)C(O)C1OC1OC(CO)C(O)C(OC(N)=O)C1O)c1cnc[nH]1 (stereo not shown) [compound 7] has a reported Incidence: number of mice with pulmonary fibrosis/number of mice of 3/10

---

test system: ICR strain mice; assay: Pulmonary toxicity (pulmonary fibrosis) in mice, intraperitoneal injection; type: in vivo; settings: 5 mg/kg i.p. once a day for 10 days; autopsy after 5 weeks; affected/total mice
QUANTITY_MEASURED: Incidence: number of mice suffering from pulmonary fibrosis

Cc1c(N)nc(C(CC(N)=O)NCC(N)C(N)=O)nc1C(=O)NC(C(=O)NC(C)C(O)C(C)C(=O)NC(C(=O)NCCc1nc(-c2nc(C(=O)NCCCN(C)CCCN)cs2)cs1)C(C)O)C(OC1OC(CO)C(O)C(O)C1OC1OC(CO)C(O)C(OC(N)=O)C1O)c1cnc[nH]1 (stereo not shown) [APMP, reference compound] | 9/9
Cc1c(N)nc(C(CC(N)=O)NCC(N)C(N)=O)nc1C(=O)NC(C(=O)NC(C)C(O)C(C)C(=O)NC(C(=O)NCCc1nc(-c2nc(C(=O)NCCC[N+](C)(C)CCC[N+](C)(C)CCCN(Cc3ccccc3)Cc3ccccc3)cs2)cs1)C(C)O)C(OC1OC(CO)C(O)C(O)C1OC1OC(CO)C(O)C(OC(N)=O)C1O)c1cnc[nH]1 (stereo not shown) | 0/9
Cc1c(N)nc(C(CC(N)=O)NCC(N)C(N)=O)nc1C(=O)NC(C(=O)NC(C)C(O)C(C)C(=O)NC(C(=O)NCCc1nc(-c2nc(C(=O)NCCCN(C)CCCNCc3ccc(OCc4ccccc4)c(OCc4ccccc4)c3)cs2)cs1)C(C)O)C(OC1OC(CO)C(O)C(O)C1OC1OC(CO)C(O)C(OC(N)=O)C1O)c1cnc[nH]1 (stereo not shown) | 1/9

ICR strain mice Incidence: number of mice suffering from pulmonary fibrosis of CC[N+](CC)(CCCNCCc1ccc(Cl)cc1)CCCNC(=O)c1csc(-c2csc(CCNC(=O)C(NC(=O)C(C)C(O)C(C)NC(=O)C(NC(=O)c3nc(C(CC(N)=O)NCC(N)C(N)=O)nc(N)c3C)C(OC3OC(CO)C(O)C(O)C3OC3OC(CO)C(O)C(OC(N)=O)C3O)c3cnc[nH]3)C(C)O)n2)n1 (stereo not shown) is 0/9

---

test system: ICR strain mice; assay: Pulmonary toxicity (pulmonary fibrosis) in mice, intraperitoneal injection; format: in vivo; details: 5 mg/kg i.p. once a day for 10 days; autopsy after 5 weeks
Below, each entry is listed alongside its reported Grade of pulmonary fibrosis, %.
Report only the number, with the unit % understood.

COc1ccc(COc2ccc(CN(CCCN(C)CCCNC(=O)c3csc(-c4csc(CCNC(=O)C(NC(=O)C(C)C(O)C(C)NC(=O)C(NC(=O)c5nc(C(CC(N)=O)NCC(N)C(N)=O)nc(N)c5C)C(OC5OC(CO)C(O)C(O)C5OC5OC(CO)C(O)C(OC(N)=O)C5O)c5cnc[nH]5)C(C)O)n4)n3)Cc3ccc(OCc4ccc(OC)cc4)c(OCc4ccc(OC)cc4)c3)cc2OCc2ccc(OC)cc2)cc1 (stereo not drawn) [compound 50] | 0
Cc1c(N)nc(C(CC(N)=O)NCC(N)C(N)=O)nc1C(=O)NC(C(=O)NC(C)C(O)C(C)C(=O)NC(C(=O)NCCc1nc(-c2nc(C(=O)NCCCN(C)CCCNC(C)c3ccc(Cl)cc3)cs2)cs1)C(C)O)C(OC1OC(CO)C(O)C(O)C1OC1OC(CO)C(O)C(OC(N)=O)C1O)c1cnc[nH]1 (stereo not drawn) [compound 14] | 11

We next turn to a different compound, shown below.
The compound listed as Cc1c(N)nc(C(CC(N)=O)NCC(N)C(N)=O)nc1C(=O)NC(C(=O)NC(C)C(O)C(C)C(=O)NC(C(=O)NCCc1nc(-c2nc(C(=O)NCCCN(C)CCCN(Cc3ccc(OCc4ccccc4)c(OCc4ccccc4)c3)Cc3ccc(OCc4ccccc4)c(OCc4ccccc4)c3)cs2)cs1)C(C)O)C(OC1OC(CO)C(O)C(O)C1OC1OC(CO)C(O)C(OC(N)=O)C1O)c1cnc[nH]1 (stereo not drawn) [Compound No. 34] has a reported Grade of pulmonary fibrosis, % of 0

---

tested on: Lymphocytic leukemia P-388; assay: In vivo antitumor activity, murine lymphocytic leukemia P-388; conditions: BDF1-SLC mice, i.p. transplant, once daily for 9 days, 30 days observation; T/C more than 130 effective
Below, each entry is listed alongside its reported Max. T/C on Mouse Lymphocytic Leukemia P 388.
Report only the number, with the unit % understood.

Study these solved cases before continuing.
Cc1c(N)nc(C(CC(N)=O)NCC(N)C(N)=O)nc1C(=O)NC(C(=O)NC(C)C(O)C(C)C(=O)NC(C(=O)NCCc1nc(-c2nc(C(=O)NCCC[N+](C)(C)CCC[N+](C)(C)CCCNCC3CCCCCCC3)cs2)cs1)C(C)O)C(OC1OC(CO)C(O)C(O)C1OC1OC(CO)C(O)C(OC(N)=O)C1O)c1cnc[nH]1 (stereo not drawn) | 177
Cc1c(N)nc(C(CC(N)=O)NCC(N)C(N)=O)nc1C(=O)NC(C(=O)NC(C)C(O)C(C)C(=O)NC(C(=O)NCCc1nc(-c2nc(C(=O)NCCCN(C)CCCNCc3c4ccccc4cc4ccccc34)cs2)cs1)C(C)O)C(OC1OC(CO)C(O)C(O)C1OC1OC(CO)C(O)C(OC(N)=O)C1O)c1cnc[nH]1 (stereo not drawn) | 148

We next turn to a different compound, shown below.
The compound listed as CCCC[N+](CCCC)(CCCNC(=O)c1csc(-c2csc(CCNC(=O)C(NC(=O)C(C)C(O)C(C)NC(=O)C(NC(=O)c3nc(C(CC(N)=O)NCC(N)C(N)=O)nc(N)c3C)C(OC3OC(CO)C(O)C(O)C3OC3OC(CO)C(O)C(OC(N)=O)C3O)c3cnc[nH]3)C(C)O)n2)n1)CCCN(Cc1ccccc1)Cc1ccccc1 (stereo not drawn) has a reported Max. T/C on Mouse Lymphocytic Leukemia P 388 of 156

---

system: ICR mice; experiment: Pulmonary toxicity (pulmonary fibrosis) in mice, intratracheal instillation; format: in vivo; settings: 16 μg/50 μl/mouse intratracheally; sacrificed 4 weeks after instillation
QUANTITY_MEASURED: Incidence of pulmonary fibrosis, % (%)
Report only the number, with the unit % understood.

Study these solved cases before continuing.
COc1ccc(CNCCCN(C)CCCNC(=O)c2csc(-c3csc(CCNC(=O)C(NC(=O)C(C)C(O)C(C)NC(=O)C(NC(=O)c4nc(C(CC(N)=O)NCC(N)C(N)=O)nc(N)c4C)C(OC4OC(CO)C(O)C(O)C4OC4OC(CO)C(O)C(OC(N)=O)C4O)c4cnc[nH]4)C(C)O)n3)n2)c(OC)c1 (centres unmarked) | 22
Cc1c(N)nc(C(CC(N)=O)NCC(N)C(N)=O)nc1C(=O)NC(C(=O)NC(C)C(O)C(C)C(=O)NC(C(=O)NCCc1nc(-c2nc(C(=O)NCCCN(C)CCCNCc3ccc(Cl)cc3Cl)cs2)cs1)C(C)O)C(OC1OC(CO)C(O)C(O)C1OC1OC(CO)C(O)C(OC(N)=O)C1O)c1cnc[nH]1 (centres unmarked) | 25
Cc1c(N)nc(C(CC(N)=O)NCC(N)C(N)=O)nc1C(=O)NC(C(=O)NC(C)C(O)C(C)C(=O)NC(C(=O)NCCc1nc(-c2nc(C(=O)NCCC[N+](C)(C)CCCN(Cc3ccccc3)Cc3ccccc3)cs2)cs1)C(C)O)C(OC1OC(CO)C(O)C(O)C1OC1OC(CO)C(O)C(OC(N)=O)C1O)c1cnc[nH]1 (centres unmarked) | 25
Cc1c(N)nc(C(CC(N)=O)NCC(N)C(N)=O)nc1C(=O)NC(C(=O)NC(C)C(O)C(C)C(=O)NC(C(=O)NCCc1nc(-c2nc(C(=O)NCCCNCCCNC(C)c3ccccc3)cs2)cs1)C(C)O)C(OC1OC(CO)C(O)C(O)C1OC1OC(CO)C(O)C(OC(N)=O)C1O)c1cnc[nH]1 (centres unmarked) [PEPP, reference compound] | 89

ICR mice Incidence of pulmonary fibrosis, % of Cc1c(N)nc(C(CC(N)=O)NCC(N)C(N)=O)nc1C(=O)NC(C(=O)NC(C)C(O)C(C)C(=O)NC(C(=O)NCCc1nc(-c2nc(C(=O)NCCCN(C)CCCNCc3ccc(Cl)c(Cl)c3)cs2)cs1)C(C)O)C(OC1OC(CO)C(O)C(O)C1OC1OC(CO)C(O)C(OC(N)=O)C1O)c1cnc[nH]1 (centres unmarked) is 30
